Origin of values: ChEMBL document CHEMBL1641406

# method: Cytotoxicity against human C8166 cells
# Format: cell-based

compound	CC50
CN1C(=O)C(c2ccccc2)C(=O)N(c2ccccc2)c2cc(C(F)(F)F)ccc21 (stereo unspecified)	> 20 µM
